- Tested on: MS2 coat protein
- procedure.details: apparent KD of MS2 coat protein; designed switch direction (-1 OFF switch, 1 ON switch): 1; higher = weaker reporter binding
- test.context: input ligand: none
Label y when apparent KD of MS2 coat protein is at or above 100 nM; anything below gets n.

- sequence.string: "GAGAGAGGGCGAGGAUAUUCGGUGAUAAUGAUGGAAGAAGGCGCAGACAUGAGGAUCACCCAUGUGGGAAUAAUCCAGAGAGAG [Parity 14 - Jieux - Same State NG 1] (Eterna round: R96, puzzle: Same State NG 1)"
  answer.label: "y"
- sequence.string: "GGUGGGUUGCUACCAACACAUGAGGAUCACCCAUGUUUUGGGAAGGAUAUGGUACCUAUUUGGUACCAGAAGGUCCCGUUGGUG [salish99_SSNG3_r04_706] (Eterna round: R96, puzzle: Same State NG 3)"
  answer.label: "n"
- sequence.string: "UUAAUUUACUGAGGAUAUCGUGUCGACUGAGGUGACAUGAGGAUCACCCAUGUGAGAAGAGGUAUCGAGAAGGCAGUAUUCAUA [JR_SSNG2_Sub021] (Eterna round: R96, puzzle: Same State NG 2)"
  answer.label: "y"
- sequence.string: "GGGAGAGCCGCAGGAUAUGGUGAGGAUUACCCACUAGAAGGGUGGACAUGAGAAUCGAACAUGAGGAUCACCCAUGUUCUGAGG (Eterna round: R96, puzzle: Same State NG 1)"
  answer.label: "y"
- sequence.string: "UUAAUUAUGUAAGGAUAUACAUGAGGAUUUCUCGUAGAAGGUACAUUACAUGAGGAUCACCCAUGUAGGUGUCCGUAGACGCCA [JL SSNG1 1.07] (Eterna round: R96, puzzle: Same State NG 1)"
  answer.label: "y"

* * *

- System: K4 kissing-loop RNA reporter;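 also: bound reporter read as fluorescence of individual clusters on recovered sequencing chips by microscopy, with normalized cluster intensities fitted with a binding model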
- procedure.details: apparent KD of K4 kissing-loop reporter; higher = weaker reporter binding
- test.context: Eterna round: R107; input ligand: arginine 13.2 mM
measurement.label: apparent KD of K4 kissing-loop reporter (nM)

- sequence.string: "AUUUAGACGAGUGAUGUUCGUGUUAUUACAGAGGAUAUGCGUAAUUGCAGAAGGCUGUAUUUAUAUAUGUUAUGUGGUUUUAAAA [whbob_Ex_FMNA__2th185]"
  experimental.value: 98
- sequence.string: "GACAUACCUAUGGAGGGCCGAUCGAUCAUACGAGGACCGGUACGGCCGCCACUCGUGGGCAGUGAUGUUGACCCUGGGAGGUAAG"
  experimental.value: 223
- sequence.string: "AGCAUUUUCAGAAGGAGCGUGAAUUAUUCUUAAUUAUAUUAUACGAGUGAUGUUCGUGUUUCACAGGUAGGUCGCUGAUAUAGCA [JR_SSArginiB_Sub004]"
  experimental.value: 90.3
- sequence.string: "UUAUAUAAUUUGUCUUUUUUAACAUUAAGUCAGGAUAUCGUAUAUUCGAGAAGGGACACAUGCUAGUGAUGUUAGCUAUUUCUUU [JR_ExcFMNA_Sub016]"
  experimental.value: 55.3
- sequence.string: "GCGAGUUUGCAAGGAUAUCGACCGUCGUACGACCAGUGAUGUUGGGAGUACUUUCAAAAUCGAUUUCGAGAAGGUGCUGGCAUCA [theeternabot_sameState_KL_FMN_B_12]"
  experimental.value: 212
- sequence.string: "UGUCAUUGGUCGGCCGCCACUAGGACCGGGACUUCUCUAGUGAUGUUAGUCUGGUCGGCCGCCACUAGGACCGGGACCGAUGACU [KL-SSTryp-B14 #DoubleAptamer]"
  experimental.value: 368
- sequence.string: "UGAUACCAGACGGCCGCCACUUCCGUAAGUCAAAGACUUGCCAAGGGAAUCGUCCAGUGAUGUUGGAGGACCGGGUCUGGUAUCU [FiskerMod 5 - Jieux - Exclusion - Tryptophan B]"
  experimental.value: 491
- sequence.string: "AGACCUCAGUGAUGUUGAGGUAACGCUGAUACCAGUGACUUAAUUCACCCUUGGCAGCAGUCCACCAAGGUAUCUGAUUAGGUCU [Theo A Ex t5]"
  experimental.value: 163
- sequence.string: "UGGGAUUUGUCAGGAUAUGAGUGCAGUGAUGUUGCACUUAAUAAAGUACAUAGGCCCUGCUGGCACUCAGAAGGGACGGUGAUGC [Lalasobeer]"
  experimental.value: 73.6
- sequence.string: "GGUAGCAUGGCGGCCGCCACUUAUGUUCACAUAGUGAUGUUAUGUUCACAUUUAUGGCCCUGCUUAAGGACCGGGCCAUGCUACC"
  experimental.value: 90.3
- sequence.string: "GCGCGUCAUGUCAGCGGUGACUACGUCGAUACCAGCAGGGAAACCUGCCCUUGGCAGCGACGCGCUGGAGUGAUGUUCCGACGGA [#2 Exclusion - Theophylline A Attempt #6 (HarryS)]"
  experimental.value: 431
- sequence.string: "GAUAUAGUGAUGUUAUAUAAGAAGGAGUUACGAGGACCGGUACGGCCGCCACUCGAAACGAGUGAUGAUUUGGGAGAUUGGGUUG [SSTryptA.O]"
  experimental.value: 330
- sequence.string: "ACAGUUGCUAGUGAUACCAGACUAGCACUACGUAAUAUGUCAAGUGAUGUUUGACAACUAGUCCCUUGGCAGCGCGAUACGACUG [#11 K4 Theophylline B Same State]"
  experimental.value: 289
- sequence.string: "UGACAUUGCUCAGAUACCAGACCUGAGGAUCACCCGGGUGCCAAACGUACAAUAAUAAAGGUCCCUUGGCAGCUGAGCAAUGUCU [TheoBX 14]"
  experimental.value: 39.7
- sequence.string: "CGCAGUGAUGUUGCUUAUAUUCUUGGUUAACGAGGACCGGUACGGCCGCCACUCGAUUUCUAACUAUUCCAGUGUUAAUUUGAGU [JR_ExcTryptoA_Sub006]"
  experimental.value: 488
- sequence.string: "UGGACGAAUAUCGAUAAGAUAUUCUGGGAUACCAGUGACGAAAGUCACCCUUGGCAGCUCAACUGCCAGUGAUGUUGGUAGUCCA [Astros-Elo-mod#3]"
  experimental.value: 142
- sequence.string: "CGUUUAUAGCAGGAUACCAGUACCCAUAAAGUACGUUAAUAGUAGAGUGAUGUUCUAAAGUACCCUUGGCAGCUUCCAGUGAGUG [ExTheophylB.S]"
  experimental.value: 157
- sequence.string: "AAACGUUGGUCUGAUACCAGCUGAUCGGAAACGAUCUUGCUGGAGUGAUGUUCCAGGAAAAGCCCUUGGCAGCAGACCGACGAAA [MAT - Same State Theophlline B - Mod of Eli - D25]"
  experimental.value: 714
- sequence.string: "GGUGGACUAGUCGAGUGAUGUUCGAGGCAUCGAGGACCGGUACGGCCGCCACUCGCAAAUCUACCGUGCGUUAACCACCAAAGUG [theeternabot_sameState_KL_Trp_A_37]"
  experimental.value: 152
- sequence.string: "AGAAGGAGAACUGCAAGAACUCCUUCAGACUAGGAUAUCAGGAAACUGAGAAGGAGUCAACUUGCAGUGAUGUUGCAAGAAUAAU [[F]''-[K]'-[F]'-[F1]-[F2]-[K1]-[K2]_Design1]"
  experimental.value: 114
- sequence.string: "GACUCAUGUAGAAGGAGCGUCAGAAGCUACAGACAUGAGUGAUGUUCAUGUUAGUUGAUCUGACAGGUAGGUCGCUACAGCAGGA [KL-SSArg B14 #analogue]"
  experimental.value: 121
- sequence.string: "GGAUUGCGUUCGGCCGCCACUAGACUACAUUCCACGCCCGACCCGUUUUUAAGUGAUGUUUAAACUAGGACCGGGAACCGAUUUC [theeternabot_exclusion_KL_Trp_B_33]"
  experimental.value: 291
- sequence.string: "AAGGAAUGUAUAGAUUAUAUACAUUCAACAGAGGAUAUGCAUUAUUGCAGAAGGCUGAAUGCAGUGAUGUUGCAAUAAUUAUUUA [#09 K4 FMN A Same State]"
  experimental.value: 199

Recorded values, source the supplement of paper PMC9170038.
